Listing of recorded log10 EC50 by entry.
Molecular target: S1P1 human receptor (Homo sapiens (Human), UniProt P21453)
Sequence (P21453 whole entry): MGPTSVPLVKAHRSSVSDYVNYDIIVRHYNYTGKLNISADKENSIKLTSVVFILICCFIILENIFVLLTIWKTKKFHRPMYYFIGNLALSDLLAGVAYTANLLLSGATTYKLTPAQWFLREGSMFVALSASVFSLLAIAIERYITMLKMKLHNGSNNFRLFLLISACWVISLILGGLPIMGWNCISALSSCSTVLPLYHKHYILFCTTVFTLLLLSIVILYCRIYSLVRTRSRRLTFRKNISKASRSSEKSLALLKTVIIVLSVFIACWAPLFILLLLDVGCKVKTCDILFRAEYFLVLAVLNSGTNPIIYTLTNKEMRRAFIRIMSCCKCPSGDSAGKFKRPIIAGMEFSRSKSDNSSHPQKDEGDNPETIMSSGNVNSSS
Assay: S1P1 [35S]-GTPgamaS binding assay (agonist activity)
Format: biochemical
Settings: GTPgamaS binding, agonist
Note: values are log10 of EC50 expressed in nM.

# input compound: CCOc1ccc(-c2nc(-c3cccc4c3ccn4CC(N)(CO)CO)no2)cc1OCC [Example 35] ; wanted: its log10 EC50
1.73

Now the compound CCCOc1ccc(-c2nc(-c3cccc4c3CCN4CC(N)(CO)CO)no2)cc1OCCC [Example 43]
1.26

Now the compound CCCc1ccc(-c2nc(-c3cccc4c3CCN4CC(N)(CO)CO)no2)cc1 [Example 48]
0.83

Now the compound CC1(C)C2CCC(CCOc3ccc(CCC(N)(CO)CO)cc3)C1C2.Cl (centres unmarked) [Example 23, hydrochloride salt]
3.09

Now the compound CCCCOc1ccc(-c2nc(-c3ccc4c(c3)CCN4CC(N)(CO)CO)no2)cc1Cl [Example 52]
1.54

Now the compound NC(CO)(CO)CN1CCc2c(-c3noc(-c4ccc(-c5ccccc5C(F)(F)F)cc4)n3)cccc21 [Example 36]
2.70

Now the compound CCCCCCCCc1ccc2c(c1)CCN2CC(N)(CO)CO [Example 3]
3.32

---

Listing of recorded EC50 by entry.
Target: S1P1 human receptor (Homo sapiens (Human))
Test: S1P1 [35S]-GTPgamaS binding assay (agonist activity)
Assay type: biochemical
Settings: GTPgamaS binding, agonist
Could you give me the number in nM? Just the number is fine.

Solved entries (count: 2):
CCCCCCCCc1ccc2c(c1)CN(CC(N)(CO)CO)C2 [Example 2]
1560
CCCc1ccc(-c2nc(-c3cccc4c3CCN4CC(N)(CO)CO)no2)cc1CCC [Example 47]
2.4

Attention now shifts to the item below.
Write down the reported EC50 of CCOc1ccc(-c2nc(-c3cccc4c3ccn4CC(N)(CO)CO)no2)cc1Cl [Example 49] , test system: S1P1 human receptor (Homo sapiens (Human)).
114

---

Biological target: UniProtKB P21453
Assay: S1P1 [35S]-GTPgamaS binding assay (agonist activity)
Format: biochemical
Details: S1P1, relative to reference agonist S1P
Listing of recorded Efficacy (% of maximum) by entry.
Could you give me the number in %? Just the number is fine.

# input compound: `CCCOc1ccc(-c2nc(-c3ccc4c(c3)CCN4CC(N)(CO)CO)no2)cc1Br` ; wanted: its Efficacy (% of maximum)
79

---

Target: S1P1 human receptor (Homo sapiens (Human))
Assay: S1P1 [35S]-GTPgamaS binding assay (agonist activity)
Type: biochemical
Conditions: S1P1, relative to reference agonist S1P
Hi! Could you tag entries with Efficacy (% of maximum) below 90% as Fulfilled, and those at or above as Not fulfilled? Much appreciated.

Report whether reported Efficacy (% of maximum) is lower than 90% (strictly) for `Cl.NC(CO)(CO)CCc1ccc(CCc2ccc(C(=O)c3ccc(F)cc3)cc2)cc1`
Fulfilled

Now the molecule `CCOc1ccc(-c2nc(-c3cccc4c3ccn4CC(N)(CO)CO)no2)cc1Cl`
Not fulfilled

Now the molecule `CCOc1ccc(-c2nc(-c3ccc4c(c3)CN(CC(N)(CO)CO)C4)no2)cc1OCC`
Not fulfilled

Now the molecule CC1(C)C2CCC(CCOc3ccc(CCC(N)(CO)CO)cc3)C1C2.Cl (stereo not drawn)
Fulfilled

Now the molecule `CCCOc1ccc(-c2nc(-c3cccc4c3CCN4CC(N)(CO)CO)no2)cc1N`
Not fulfilled

Now the molecule `CCOc1ccc(-c2nc(-c3ccc4c(c3)CCN4CC(N)(CO)CO)no2)cc1OCC`
Not fulfilled
